# recorded-conditions: in methanol, 313.15 K
property-label: solubility (mole fraction)

- chem-smiles: "O=C(O)c1cccc2ccccc12"
  property-label: "solubility (mole fraction)"
  observed: 0.0351

###

# recorded-conditions: in acetic acid, 333.15 K
property-label: solubility (mole fraction)

- chem-smiles: "O=C(O)c1cccc2ccccc12"
  observed: 0.0503

###

# recorded-conditions: in ethyl acetate, 333.15 K

- chem-smiles: "O=C(O)c1cccc2ccccc12"
  solubility (mole fraction): 0.0754

###

# recorded-conditions: in acetic acid, 303.15 K
property-label: solubility (mole fraction)

- chem-smiles: "O=C(O)c1cccc2ccccc12"
  observed: 0.0224
